# Test system: terminal ileum
# test method notes: Isometric contraction force of isolated terminal ilea precontracted by KCl
# Type: cell-based, guinea pigs
# assay setup: Cavia porcellus; terminal ilea precontracted by 60 mmol/l KCl
hey, just use Fulfilled if measured EC50 is less than 30 µM, otherwise Not fulfilled

# compound, label value
records = [
    ("Cc1nccn1C(=S)SCc1ccccc1 [CRC9HCl]", "Fulfilled"),
    ("S=C(SCc1ccccc1)n1ccnc1 [CRC8HCl]", "Fulfilled"),
    ("CSC(=S)n1ccnc1C [CRC5HCl]", "Fulfilled"),
    ("CSC(=S)n1c(C)nc2ccccc21 [CRC4HCl]", "Fulfilled"),
    ("CSC(=S)n1ccnc1.Cl [CRC1HCl]", "Fulfilled"),
    ("COc1ccc(CSC(=S)n2ccnc2)cc1 [CRC10HCl]", "Not fulfilled"),
    ("CC(=O)OCCSC(=S)n1ccnc1 [CRC13HCl]", "Not fulfilled"),
    ("CCOC(=O)CCSC(=S)n1ccnc1 [CRC11HCl]", "Not fulfilled"),
]

**Q:** Is 30 µM strictly greater than the compound's reported EC50? compound: COc1cc(CSC(=S)n2ccnc2)cc(OC)c1OC [CRC33]
**A:** Fulfilled

Where these numbers come from: patent US20130005739A1
